Exercise: state measured DAR for each of the compounds provided.
Assay: Average drug loading (DAR, drug to antibody ratio) from LC/MS of reduced, deglycosylated conjugates
Settings: conjugate with trastuzumab (TBS); average number of payload molecules per antibody
Numbers only.

# map each compound to its DAR
1. C[C@@H]1CN(C(=O)N(CC[C@H](N)CF)[C@@H](c2nc(-c3cc(F)cc(F)c3)nn2Cc2ccccc2)C(C)(C)C)C[C@H](C)O1
2. CC(C)(C)[C@H](c1nc(-c2cc(F)ccc2F)cn1Cc1cccc(F)c1)N(C[C@@H]1CNC[C@@H]1F)C(=O)CCS
3. O=C(NC[C@H](O)CO)N(C[C@@H]1CNC[C@@H]1F)[C@@H](c1nc(-c2cc(F)ccc2F)cn1Cc1ccccc1)C1CCOCC1
4. CSCCC(=O)N(C[C@@H]1CNC[C@@H]1F)[C@@H](c1nc(-c2cc(F)ccc2F)cn1Cc1ccccc1)C1CCOCC1

1. 5.2
2. 3.4
3. 3
4. 3.2

# map each compound to its DAR
1. CC(C)(C)[C@H](c1nc(-c2cc(F)ccc2F)cn1Cc1ccccc1)N(CC[C@H](N)CF)C(=O)CN
2. COC(C)(C)[C@H](c1nc(-c2cc(Cl)ccc2F)cn1Cc1cccc(F)c1)N(C[C@@H]1CN[C@H](CF)C1)C(=O)c1cc(C)nn1C

[5, 5.2]
